Target: Cytochrome P450 2D6 (Homo sapiens)
Assay: Cytochrome panel assay with activity outcomes
Settings: recombinant CYP, pro-luciferin dealkylation, luminescence, p450-cyp2d6; series mostly up to 57.1 µM
The whole screen tested about 16,000 compounds, of which about 2,600 (16%) were called active. Not shown: some 20% with an inconclusive outcome. Only a sample is shown.
Readout: AC50

Examples from the recorded data:
Compound	AC50
Cc1cc(S(=O)(=O)NCCN(C)C)c(C)s1	inactive
Cc1cc2nc(-c3ccc(SCC(=O)N4CCc5ccccc54)nc3)[nH]c2cc1C	inactive
Cc1cc(C)c2c(-n3cccc3)n[nH]c2n1	25.1 µM (active)
Cc1nc(-c2c(C(F)(F)F)noc2-c2ccc(O)cc2O)cs1	inactive
O=C(Cn1nnc2ccccc21)N1CCCCC1	inactive

Which measured AC50 value corresponds to CC(=O)OCC(=O)[C@@]1(OC(C)=O)[C@H](C)C[C@H]2[C@@H]3C[C@H](F)C4=CC(=O)C=C[C@@]4(C)[C@]3(F)[C@H](O)C[C@@]21C ? inactive

Given the entry CCCCCCCC/C=C\CCCCCCCC(=O)NCCc1ccc(O)c(O)c1 , report its measured AC50. inactive

What value of AC50 has been reported for the following compound? CCc1ccccc1NC(=O)CSc1nc(-c2ccccc2)nn1C(=O)c1cccc([N+](=O)[O-])c1 10 µM (active)

Fill in: AC50 of CCc1sc(-c2c(C#N)c(N)nc3c2CCCCCC3)cc1[N+](=O)[O-] is ___ inactive

Please give the measured AC50 for this compound: COCCn1c(=O)c(-c2cccc(C#N)c2)nc2cnc(N3CCNCC3)nc21 inactive

Query (compound): Nc1ccccc1Nc1ccccc1 ; field requested: AC50 22.4 µM (active)

# AC50 lookup, item O=C1CC(c2ccc3c(c2)OCO3)Sc2nc3ccccc3n21 (stereo not drawn) 8.91 µM (active)

Can you look up the measured AC50 of O=C(CCCN1C(=O)C2C3C=CC(C3)C2C1=O)N1CCN(c2ccccc2)CC1 (stereo not drawn) for me? inactive

I have this compound here, O=C(N/N=C/c1c[nH]c2ccccc12)c1cc(-c2ccc(-c3ccccc3)cc2)n[nH]1 , and I need its recorded AC50. inactive

Name the reported AC50 value associated with the compound Clc1ccc([C@H](Cn2ccnc2)OCc2csc3c(Cl)cccc23)c(Cl)c1 5.01 µM (active)

Find the recorded AC50 belonging to N#Cc1cccc(NC(=O)N2CC[C@@]3(CCCN(C(=O)c4ccncc4)C3)C2)c1 and report it. inactive

Record request: AC50 value, item Cc1cccc2sc(NC(=O)C3c4ccccc4Oc4ccccc43)nc12 inactive

What value of AC50 has been reported for the following compound? CCn1c(=O)[nH]c2ccccc21 inactive

Data request, read-out AC50, for COc1cccc(Cn2c(=O)c(-c3cn(C)c4ccccc34)nc3cnc(N4CCOCC4)nc32)c1 inactive

Fill in the blank: the reported AC50 of CCN1CCN(C(=O)CCc2nc3ccccc3c(=O)[nH]2)CC1 is ____. inactive

Which AC50 value belongs to COc1ccc(N(C(=O)Cn2nnc3ccccc32)C2(C(=O)NC3CCCC3)CCCCC2)cc1 ? 11.2 µM (active)

Request the reported AC50 associated with CN(C)c1ncc2nc(-c3cc(F)cc(F)c3)c(=O)n(Cc3ccc(F)cc3)c2n1 inactive

###

Target: Cytochrome P450 2D6 (Homo sapiens)
Assay: Cytochrome panel assay with activity outcomes
Conditions: recombinant CYP, pro-luciferin dealkylation, luminescence, p450-cyp2d6; series mostly up to 57.1 µM
Out of some 16,000 compounds screened, about 2,600 (16%) were called active. Not shown: some 20% with an inconclusive outcome. Calls come from the whole dose curve; as a rule, active = well fitted curve in the direction sought with a large enough effect; inconclusive = small, poorly fitted or top-dose-only effect, or effect the other way; inactive = no such curve, though single readings can be large or run the other way. Not all results are given here.
Pick one and only one: 1.0 (active), 0.0 (inactive)

The examples below pair each entry with its known result.
Molecule	Category Label
NC(=S)Nc1cc2ccccc2c2ccccc12	1.0
N#CCCn1c(=O)c(-c2cccc(C#N)c2)nc2cnc(Oc3ccccc3)nc21	0.0
Cc1oc(-c2ccccc2)cc1C(=O)Nc1ccc(N(C)C)cc1	1.0
CCOc1ccc2ccccc2c1C(=O)N[C@@H]1C(=O)N2[C@@H]1SC(C)(C)[C@@H]2C(=O)O	0.0
CCCC[C@@H]1C[C@H]1C(NC(=O)c1cccs1)c1ccc(Cl)cc1 (some centres undefined)	0.0
CN1C(=O)NC(c2ccc(O)cc2)C(C(=O)c2cccs2)C1(O)C(F)(F)F (centres undefined)	0.0
c1ccc(-n2ncc3c2ncn2cnnc32)cc1	0.0
COc1ccccc1-c1c(C(F)(F)F)oc2cc(OC(=O)c3cccc([N+](=O)[O-])c3C)ccc2c1=O	0.0

Tell me the assay call for COc1ccc(NC(=O)CSc2nncn2C)c([N+](=O)[O-])c1 please. 0.0

Check the results log: what was the call for CC(C)CN(CC(C)C)S(=O)(=O)N1CCC(C(=O)NCc2ccc(F)cc2)CC1 ? 0.0

Look up the recorded call for Cc1oc(C(C)(C)C)cc1C(=O)Nc1cccc(/C=C/C(=O)O)c1 in this test. 0.0

Please let me know the test result on file for Cc1ccc(C)c(C(=O)CN2C3=NCCCN3c3ccccc32)c1 . 1.0

# lookup: test call for CCNc1ncc2nc(C)c(=O)n(Cc3cccs3)c2n1 0.0

Given CCNc1ncc2nc(-c3cccs3)c(=O)n(Cc3cccs3)c2n1 , state the outcome it received in this test. 0.0

###

Molecular target: Cytochrome P450 2D6 (Homo sapiens) (UniProt P10635)
Sequence (P10635 whole entry, looked up): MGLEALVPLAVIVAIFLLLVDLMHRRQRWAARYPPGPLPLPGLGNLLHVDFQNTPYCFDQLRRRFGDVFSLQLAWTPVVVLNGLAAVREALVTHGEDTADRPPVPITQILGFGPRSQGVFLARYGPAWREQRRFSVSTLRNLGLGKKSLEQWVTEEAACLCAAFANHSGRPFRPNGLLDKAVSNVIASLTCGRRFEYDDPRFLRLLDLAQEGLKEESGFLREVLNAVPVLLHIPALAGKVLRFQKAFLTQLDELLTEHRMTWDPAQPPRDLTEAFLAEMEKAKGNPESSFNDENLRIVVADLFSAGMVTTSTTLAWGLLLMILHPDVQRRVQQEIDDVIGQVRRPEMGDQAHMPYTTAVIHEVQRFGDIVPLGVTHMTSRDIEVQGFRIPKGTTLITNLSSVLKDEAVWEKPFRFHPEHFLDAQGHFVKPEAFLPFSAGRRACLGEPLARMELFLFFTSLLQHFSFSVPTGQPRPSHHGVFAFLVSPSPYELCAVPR
Assay: Cytochrome panel assay with activity outcomes
Details: recombinant CYP, pro-luciferin dealkylation, luminescence, p450-cyp2d6; series mostly up to 57.1 µM
Out of some 16,000 compounds screened, about 2,600 (16%) were called active. Roughly 20% stayed inconclusive and do not appear here. Calls follow the shape of the dose curve; as a rule, active = well fitted curve in the direction sought with a large enough effect; inconclusive = small, poorly fitted or top-dose-only effect, or effect the other way; inactive = no such curve, though single readings can be large or run the other way. The list is a sample of the results.
Your response should consist of one outcome taken from Yes = active, No = inactive

Tell me the assay call for CSc1ccc2c(c1)N(CCCN(C)C)c1ccccc1S2 please. Yes

Which outcome did this test record for the molecule CCC(=O)c1ccc2c(c1)N(CCCN(C)C)c1ccccc1S2 ? Yes

Test call for this molecule, please: COC(=O)c1ccccc1NC(=O)c1c(Br)cnn1C No

###

Biological target: Cytochrome P450 2D6 (Homo sapiens)
Assay: Cytochrome panel assay with activity outcomes
Conditions: recombinant CYP, pro-luciferin dealkylation, luminescence, p450-cyp2d6; series mostly up to 57.1 µM
Out of some 16,000 compounds screened, about 2,600 (16%) were called active. Another 20% or so got no clear call; they are omitted. Calls follow the shape of the dose curve; as a rule, active = well fitted curve in the direction sought with a large enough effect; inconclusive = small, poorly fitted or top-dose-only effect, or effect the other way; inactive = no such curve, though single readings can be large or run the other way. Not all results are given here.
Field 'call' accepts 1.0 = active, 0.0 = inactive

Field: example entries. Status: answers known.
Compound	Category Label
COc1c(C)c2c(c(O)c1C/C=C(\C)CCC(=O)O)C(=O)OC2	0.0
CC(C)(C)NC(=O)COC(=O)c1cncc(Br)c1	0.0

GET /call?item= CC(C)NC(=O)CSc1nnc(C2CC2)n1-c1ccccc1 returns the recorded outcome of this test. 0.0

Give the logged outcome of this assay for the following compound: Cc1ccc(C2CC(=O)c3cnc(N4CCc5ccccc5C4)nc3C2)cc1 (stereo not given) 0.0

# outcome recorded in this test, key = CC(C(=O)NC1CCCC1)N(C(=O)c1snc(C(N)=O)c1N)c1ccc2c(c1)OCCO2 (stereo not given) 1.0

Dear colleague, could you share the recorded outcome for COc1ccc(/C=N/NC(N)=S)cc1OC(=O)c1cccc2ccccc12 when you have a moment? 0.0

// return assay outcome for COc1ccc(Oc2c(C=O)c3ccccc3n2C)cc1 0.0

Query: recorded result category for CCn1nnnc1SCC(=O)c1ccc2c(c1)OCCO2 in this test 0.0

Entry COc1ccccc1CN1CCC2(CCNCC2)CC1 : call = ? 1.0

For this compound, state the assay outcome: CN(C)c1ccc(-c2nc(-n3ccnc3)c3ccccc3n2)cc1 1.0

###

Target: Cytochrome P450 2D6 (Homo sapiens)
Experiment: Cytochrome panel assay with activity outcomes; as to activity, negative = inhibition: % is scaled to controls: 0 for no effect and ±100 for the full control effect
Conditions: recombinant CYP, pro-luciferin dealkylation, luminescence, p450-cyp2d6; series mostly up to 57.1 µM
Hit rate of the full screen: of about 16,000 compounds, about 2,600 (16%) were called active. Roughly 20% stayed inconclusive and do not appear here. The list is a sample of the results.
Collected activity, negative = inhibition values appear next to each entry.

Entry Smiles	Measured Target	activity, negative = inhibition
[O-][n+]1c(CN2CCCCC2)nc2cccc3c2c1-c1ccccc1-3	Cytochrome P450 2D6 (Homo sapiens)	-13.1% [at 11.4 µM] (inactive)

Form field: activity, negative = inhibition recorded for Cc1cc(C)nc(SCCc2cccc[n+]2C)n1 with Cytochrome P450 2D6 (Homo sapiens) (enter value) -2.83% [at 11.4 µM] (inactive)

Short answer please: activity, negative = inhibition, Cytochrome P450 2D6 (Homo sapiens), entry Cc1[nH]c(N)nc(=S)c1CCC(=O)O 5.35% [at 11.4 µM] (inactive)

// fetch Cytochrome P450 2D6 (Homo sapiens) activity, negative = inhibition for Cn1c(=O)c2[nH]c(CSCc3ccccc3)nc2n(C)c1=O -20.6% [at 11.4 µM] (inactive)

Entry C/C(CC/C(C)=N/O)=N/O , system Cytochrome P450 2D6 (Homo sapiens): what activity, negative = inhibition was measured? 8.85% [at 11.4 µM] (inactive)

For the record OCCSCc1cc(Cl)cc(Cl)c1O , what value of activity, negative = inhibition is listed for Cytochrome P450 2D6 (Homo sapiens)? -5.19% [at 11.4 µM] (inactive)
